test system: ME-180 human cervical carcinoma cell line; assay: Cell viability assay, ME-180 cells (NPC library profiling)
Quantity: cytotoxicity in ME-180 cells

1) CC(=O)[O][Hg][c]1ccccc1 [phenylmercuric acetate] ... prominent cytotoxicity
2) Cc1cc(-c2ccc(/N=N/c3c(S(=O)(=O)O)cc4cc(S(=O)(=O)O)cc(N)c4c3O)c(C)c2)ccc1/N=N/c1c(S(=O)(=O)O)cc2cc(S(=O)(=O)O)cc(N)c2c1O ... prominent cytotoxicity
3) CN(C)c1ccc(C(=C2C=CC(=[N+](C)C)C=C2)c2c(O)c(S(=O)(=O)[O-])cc3cc(S(=O)(=O)[O-])ccc23)cc1.[Na+] ... prominent cytotoxicity

###

test system: ME-180 human cervical carcinoma cell line; assay: Cell viability assay, ME-180 cells (NPC library profiling)
Quantity: cytotoxicity in ME-180 cells

1. C[C@H]1CC[C@]2(NC1)O[C@H]1C[C@H]3[C@@H]4CC[C@H]5C[C@@H](O[C@@H]6O[C@H](CO)[C@H](O[C@@H]7O[C@H](CO)[C@@H](O)[C@H](O[C@@H]8OC[C@@H](O)[C@H](O)[C@H]8O)[C@H]7O[C@@H]7O[C@H](CO)[C@@H](O)[C@H](O)[C@H]7O)[C@H](O)[C@H]6O)CC[C@]5(C)[C@H]4CC[C@]3(C)[C@H]1[C@@H]2C ... prominent cytotoxicity
2. C[n+]1cc2c3c(ccc2c2ccc4cc5c(cc4c21)OCO5)OCO3 ... prominent cytotoxicity

###

system: fresh CLL patient lymphocytes; conditions: read-out: potency; comparable cell killing against CLL cells and normal lymphocytes
pIC50: −log10 of the molar value.
Quantity: pIC50

1. Nc1nc(F)nc2c1ncn2[C@@H]1O[C@H](CO)[C@@H](O)[C@@H]1O [fludarabine] ... 4.92

###

Here the recorded IC50 is given for each entry.
test system: fresh CLL patient lymphocytes; settings: read-out: IC50 CLL; average of cells from 7 CLL patients, fresh, Figure 5
Quantity: IC50

1) OCC(S)CS (stereo not shown) ... < 1 µM
2) Nc1nc(F)nc2c1ncn2[C@@H]1O[C@H](CO)[C@@H](O)[C@@H]1O ... 12.2 µM
3) CC(=O)OC[C@H]1O[C@@H]([S-])[C@H](OC(C)=O)[C@@H](OC(C)=O)[C@@H]1OC(C)=O.CCP(CC)CC.[Au+] ... < 1 µM
4) COc1cc([C@@H]2c3cc4c(cc3[C@H](O)[C@H]3COC(=O)[C@H]23)OCO4)cc(OC)c1OC ... < 1 µM

###

test system: lymphocytes from normal donors; settings: fresh cells, normal IC50 vs CLL IC50
Here the recorded potency shift between CLL and normal donor samples is given for each entry.
Quantity: potency shift between CLL and normal donor samples (fold)

1. COc1cccc2c1C(=O)c1c(O)c3c(c(O)c1C2=O)C[C@@](O)(C(=O)CO)C[C@@H]3O[C@H]1C[C@H](N)[C@H](O)[C@H](C)O1 ... 3
2. CC(=O)OC[C@H]1O[C@@H]([S-])[C@H](OC(C)=O)[C@@H](OC(C)=O)[C@@H]1OC(C)=O.CCP(CC)CC.[Au+] ... 30
3. OCC(S)CS (centres unmarked) ... 50

###

test system: lymphocytes from normal donors; details: read-out: IC50 normal; average of 2 normal donors, fresh, Figure 5
Quantity: IC50 (µM)

1) Nc1nc(F)nc2c1ncn2[C@@H]1O[C@H](CO)[C@@H](O)[C@@H]1O ... 9.4
2) CC(=O)OC[C@H]1O[C@@H]([S-])[C@H](OC(C)=O)[C@@H](OC(C)=O)[C@@H]1OC(C)=O.CCP(CC)CC.[Au+] ... 2.05
